Tested on: T-47D
PROTOCOL_DETAILS: Caspase cascade activation assay in T-47D cells (N-(Ac-DEVD)-N'-ethoxycarbonyl-R110 fluorogenic substrate)
Format: cell-based
TEST_SETTINGS: T-47D human breast cancer cells, 24 h incubation; ratio of net RFU of test compound to control
Readings of Caspase activity (Ratio) for the listed compounds

COMPOUND: COc1cc(C2C(C#N)=C(N)Oc3c2ccc2c3ccn2CO)cc(Br)c1OC (stereo not drawn) [Example 17]
Caspase activity (Ratio): 7.2

COMPOUND: COc1cc(C2C(C#N)=C(N)Oc3c2ccc2c3ccn2C)cc(Br)c1O (stereo not drawn) [Example 18]
Caspase activity (Ratio): 4.0

COMPOUND: COc1cc(C2C(C#N)=C(N)Oc3c2ccc2c3ccn2C)cc(Br)c1OC(C)=O (stereo not drawn) [Example 22]
Caspase activity (Ratio): 5.3

COMPOUND: CCn1ccc2c3c(ccc21)C(c1cc(Br)c(OC)c(OC)c1)C(C#N)=C(N)O3 (stereo not drawn) [Example 4]
Caspase activity (Ratio): 6.6

COMPOUND: Cc1cncc(C2C(C#N)=C(N)Oc3c2ccc2c3CCN2C)c1 (stereo not drawn) [Example 36]
Caspase activity (Ratio): 4.6

COMPOUND: COc1cc(OC)cc(C2C(C#N)=C(N)Oc3c2ccc2c3ccn2CO)c1 (stereo not drawn) [Example 34]
Caspase activity (Ratio): 3.3

COMPOUND: Cc1cncc(C2C(C#N)=C(N)Oc3c2ccc2c3ccn2C)n1 (stereo not drawn) [Example 2]
Caspase activity (Ratio): 8.2

COMPOUND: Cn1ccc2c3c(ccc21)C(c1cccc([N+](=O)[O-])c1)C(C#N)=C(N)O3 (stereo not drawn) [Example 25]
Caspase activity (Ratio): 3.2

COMPOUND: COc1cc(C2C(C#N)=C(N)Oc3c2ccc2c3ccn2C(C)C)cc(Br)c1OC (stereo not drawn) [Example 43]
Caspase activity (Ratio): 2.5

====

Tested on: ZR-75-1
PROTOCOL_DETAILS: Caspase cascade activation assay in ZR-75-1 cells (N-(Ac-DEVD)-N'-ethoxycarbonyl-R110 fluorogenic substrate)
Assay type: cell-based
TEST_SETTINGS: ZR-75-1 human breast cancer cells, 24 h incubation; ratio of net RFU of test compound to control
Label scheme for Caspase activity (Ratio): lower than 4 is No, 4 and above is Yes.

COMPOUND: Cn1ccc2c3c(ccc21)C(c1ccc(F)c(C#N)c1)C(C#N)=C(N)O3 (stereo not drawn) [Example 40J]
CAT: Yes
//
COMPOUND: Cn1ccc2c3c(ccc21)C(c1ccc([N+](=O)[O-])s1)C(C#N)=C(N)O3 (stereo not drawn)
CAT: Yes
//
COMPOUND: Cc1cncc(C2C(C#N)=C(N)Oc3c2ccc2c3ccn2CO)c1 (stereo not drawn)
CAT: Yes
//
COMPOUND: Cn1ccc2c3c(ccc21)C(c1cccc(Cl)c1)C(C#N)=C(N)O3 (stereo not drawn) [Example 40C]
CAT: No
//
COMPOUND: COc1cncc(C2C(C#N)=C(N)Oc3c2ccc2c3ccn2C)c1 (stereo not drawn)
CAT: Yes
//
COMPOUND: COc1cc(OC)cc(C2C(C#N)=C(N)Oc3c2ccc2c3ccn2C)c1 (stereo not drawn)
CAT: Yes
//
COMPOUND: Cn1ccc2c3c(ccc21)C(c1cc(Cl)cc(Cl)c1)C(C#N)=C(N)O3 (stereo not drawn) [Example 40D]
CAT: No
//
COMPOUND: Cn1ccc2c3c(ccc21)C(c1cncc(C#N)c1)C(C#N)=C(N)O3 (stereo not drawn)
CAT: Yes
//
COMPOUND: Cn1ccc2c3c(ccc21)C(c1cccc(C#N)c1)C(C#N)=C(N)O3 (stereo not drawn)
CAT: No
//
COMPOUND: Cn1ccc2c3c(ccc21)C(c1cccc(Br)c1)C(C#N)=C(N)O3 (stereo not drawn)
CAT: Yes
